- TGT: MAGI2_4, Q86UL8
- Sequence (Q86UL8 772-865): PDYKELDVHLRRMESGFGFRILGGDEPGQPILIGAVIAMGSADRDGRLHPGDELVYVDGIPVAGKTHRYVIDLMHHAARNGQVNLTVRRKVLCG
- TEST_NAME: holdup assay
- Design: key: below the threshold = too weak to quantify, mostly under pKd 3.1 to 4
- ASSAY_SETUP: plain residues with an end cap or a label only (N-terminal biotin on a linker: ttds)
RESULT_TYPE: pKd

Before answering, review these 4 worked examples.
1. RPLPRKVSQL [DOCK4, Q8N1I0]    below the threshold
2. KKYVDAETSL [SLC4A7, Q9Y6M7]    below the threshold
3. FHPLGADSQV [SLC2A1, P11166]    below the threshold
4. NDPAWDETNL [ARHGEF7, Q14155;Q14155-1]    below the threshold

Reported pKd for DKDPHSETAL [TMIGD1, Q6UXZ0] was below the threshold
